# Tested on: Hs578T
# ASSAY PROCEDURE: Matrigel outgrowth assay/branching assay
# Assay type: cell-based
# RUN CONDITIONS: Homo sapiens, Hs-578T; HS578T cell line; Table Ib; read-out: Total branching inhibition in Matrigel HS578T
pIC50: −log10 of the molar value.
EXPERIMENTAL ENDPOINT: pIC50

The cases that follow already have their pIC50 on record.
compound=COc1cc2c(Oc3ccc(NS(=O)(=O)c4ccc(Cl)s4)cc3F)ccnc2cc1OCCCN(C)C value="4.60 to 5.00"
compound=COc1cc2c(Oc3ccc(NS(=O)(=O)c4ccn(C)n4)cc3F)ccnc2cc1OCCCN1CCCCC1 value="4.60 to 5.00"
compound=COc1cc2c(Oc3ccc(NS(=O)(=O)c4c(C)nn(C)c4C)cc3F)ccnc2cc1OCCCN1CCOCC1 value="4.60 to 5.00"
compound=COc1cc2c(Oc3ccc(NS(=O)(=O)c4ccccc4F)cc3Cl)ccnc2cc1OCCCN1CCN(C)CC1 value="≥ 5.00"
compound=COc1cc2c(Oc3ccc(NS(=O)(=O)c4csc5ccccc45)cc3Cl)ccnc2cc1OCCCN1CCN(C)CC1 value="4.60 to 5.00"

-- ask Notebook: pull reported pIC50 for Hs578T, entry "COc1cc2nccc(Oc3ccc(NS(=O)(=O)c4ccccc4C(F)(F)F)cc3F)c2cc1OCCCN1CCN(C)CC1"
-- reply ≥ 5.00

-- ask Repeat for the following compound: COc1cc2c(Oc3ccc(NS(=O)(=O)c4csc5ccccc45)cc3F)ccnc2cc1OCCCN1CCCC(C)C1 (stereo not shown)
-- reply ≥ 5.00

-- ask Repeat for the following compound: "COc1cc2c(Oc3ccc(NS(=O)(=O)c4ccccc4C(F)(F)F)cc3Cl)ccnc2cc1OCCCN1CCN(C)CC1"
-- reply ≥ 5.00

-- ask Repeat for the following compound: "COc1cc2c(Oc3ccc(NS(=O)(=O)c4cc(Cl)ccc4Cl)cc3F)ccnc2cc1OCCN1CCOCC1"
-- reply 4.60 to 5.00

-- ask Repeat for the following compound: "COc1cc2c(Oc3ccc(NS(=O)(=O)c4ccccc4[N+](=O)[O-])cc3F)ccnc2cc1OCCCN1CCCCC1"
-- reply 4.60 to 5.00
